ASSAY_COMMENT: ATP-based viability of Huh7 replicon cells – cell-based, CellTiter-Glo luminescence, basal, 48 h, cytotoxicity control for HCV replication inhibitor project, primary screen (AID 1143);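 further: Huh7 hepatoma cells carrying a hepatitis C replication reporter with no stimulus; test concentration not given here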
PROTOCOL_CONDITIONS: higher = more signal, called active from +8 up or from −8 down
Rule: z-score of -3 or more gives YES; anything lower gives NO.

COMPOUND	CLASS_ASSIGNMENT
CCOC(=O)C[C@H]1[C@H](OC(=O)c2ccccc2-c2ccccc2)[C@@H](NC(=O)c2ccc3ccccc3n2)c2cc(OCCCO)ccc2N1C(=O)Cc1ccc(OC)cc1	YES
Cc1ccccc1C(O)C1C=CC2C(=O)NC(=O)C2N1Nc1ccccn1 (stereo not drawn)	YES
NC(=O)NCC#Cc1ccc2c(c1)[C@]1(C(=O)N2)[C@H](c2ccccc2OCCO)N2[C@H](c3ccccc3)[C@H](c3ccccc3)OC(=O)[C@H]2[C@@H]1C(=O)NC[C@H](O)c1ccccc1	YES
COCCOC(=O)N1C(=O)[C@@]2(c3ccccc31)[C@H](c1ccc(O)cc1)N1[C@H](c3ccccc3)[C@H](c3ccccc3)OC(=O)[C@H]1[C@@H]2C(=O)N1CCN(c2ncccn2)CC1	NO
C=CC[C@@]1(C(=O)NCCCOC)N=C(c2ccc(OCCCO)cc2)O[C@@H]1c1ccccc1	YES

Now let's try a different one.
Threshold query (z-score >= -3) on `COc1ccc([Si](C)(C)[C@@H]2[C@@H](CCO)O[C@]3(C(=O)N(Cc4ccccc4)c4ccc(N5C(=O)c6cccc7cccc5c67)cc43)[C@H]2C)cc1`
NO

###

ASSAY_COMMENT: plasmodial surface anion channel blockers, osmotic lysis – cell-based, P. falciparum Indochina, OD700, 2 h, primary screen (AID 1155);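 further: lysis reports solute entry through the parasite surface anion channel PSAC; channel blockers reduce lysis of infected cells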
PROTOCOL_CONDITIONS: P. falciparum Indochina infected erythrocytes, higher = more signal, called active from +8 up or from −8 down
Outcome label depends on z-score relative to 2: at/above gives 1, below gives -1.

See these solved cases before continuing.
COMPOUND	CLASS_ASSIGNMENT
C=CCN1C(=O)[C@]2(CCS(=O)(=O)c3ccccc3)N=C(c3ccc(OCCCO)cc3)O[C@@H]2c2ccccc21	1
CCCC=C(CCC)[C@@H](NS(=O)(=O)c1ccc(C(F)(F)F)cc1)c1ccccc1	-1
CC(C)C(CO)N1C(=O)[C@@H]2[C@H]3C(=O)OCC=C[C@H]3OC23C=CCN(c2ccc(Cl)cc2)C(=O)[C@@H]13 (stereo partly specified)	-1
CO[C@H]1O[C@H](CO)[C@@H](OC(=O)Nc2ccccc2)[C@H](OC(=O)c2cc3ccccc3[nH]2)[C@H]1OC(=O)c1cc2ccccc2[nH]1	-1
CCCN1C(=O)[C@@]2(Cc3ccccc31)N=C(c1ccc(OCCCO)cc1)O[C@H]2c1ccccc1	1

Query compound follows.
Textbook exercise: given the entry `O=C(NCCN1CCOCC1)[C@@H]1c2ccccc2C(=O)N(C2Cc3ccccc3C2)[C@H]1c1ccc(CO)cc1` , state whether its z-score is greater than or equal to 2.
-1

###

ASSAY_COMMENT: probe aCHRDL2 binding to arrayed compounds – biochemical, biotinylated probe, 635/667 nm fluorescence, primary screen (AID 1100)
PROTOCOL_CONDITIONS: small-molecule microarray, higher = more signal
PROPERTY_MEASURED: composite z-score
Numbers only.

Study these solved cases before continuing.
COMPOUND	composite z-score
CCCC=C(CCC)[C@@H](NS(=O)(=O)c1ccc(C(F)(F)F)cc1)c1ccccc1	0.614
COCCOC(=O)N1C(=O)[C@@]2(c3ccccc31)[C@H](c1ccc(O)cc1)N1[C@H](c3ccccc3)[C@H](c3ccccc3)OC(=O)[C@H]1[C@@H]2C(=O)N1CCN(c2ncccn2)CC1	0.419
COC(=O)[C@@]1(Cc2ccc(OC)cc2)[C@H]2c3cc(C(=O)N4CCCC4)n(CCO)c3C[C@H]2CN1C(=O)c1ccccc1	0.888
COc1ccc([Si](C)(C)[C@H]2[C@H](CC(=O)N3Cc4ccccc4C[C@H]3CO)O[C@@]3(C(=O)N(Cc4ccc(N5CCOC5=O)cc4)c4ccccc43)[C@@H]2C)cc1	-0.345
Cc1ccc(S[C@]2(C(=O)NCC(F)(F)F)CC(=O)N(Cc3cc(C(F)(F)F)cc(C(F)(F)F)c3)[C@@H]2c2ccc(CO)cc2)cc1	0.532

Batch: composite z-score for all items listed.
1. CCCCCN1CC=CC23O[C@@H]4/C=C\CCC(C)OC(=O)C4[C@H]2C(=O)N(C(CO)C(C)C)[C@@H]3C1=O (stereo partly specified)
2. COc1cc(OC)c(C(O)C2C=CC3C(=O)N(Cc4ccccc4)C(=O)C3N2n2cnnc2)cc1Br (stereo unspecified)
3. O=C1[C@H]2C=C(I)[C@H](C[C@@H]2OCCOCCO)[C@@]12CO2
4. CC(C)C[C@@H]1NC(=O)[C@@H]2C[C@H](C(=O)NCCCCCCN)[C@H](c3cccc(OCCO)c3)N2C1=O

1. -0.288
2. 0.373
3. -0.751
4. 0.532

###

Test system: wheat germ agglutinin (Triticum aestivum), Alexa647-labelled
ASSAY_COMMENT: Alexa647-WGA lectin binding to printed small molecules – biochemical, small-molecule microarray, 635/667 nm fluorescence, artefact control for SMM control-protein annotation, profiling panel (AID 1140);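 further: score merges 667 nm feature emission with signal to noise over triplicate slides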
PROTOCOL_CONDITIONS: WGA-A647 binding, 635 nm fluorescence, higher = more signal
Please use MET whenever composite z-score is not below -0.06, and NOT MET whenever it is.

A selection of reference data follows.
COMPOUND	CLASS_ASSIGNMENT
CCCC[C@@H](O)C1=C(COC)C[C@H]2C(=O)N(C)C(=O)[C@H]2[C@H]1CO	NOT MET
COc1cc2c(cc1O)C(C1CC1)N(C)CC2 (stereo not given)	NOT MET
COc1cc(NN2C(C(O)c3ccc(N(C)C)cc3)C=CC3C(=O)N(c4ccccc4)C(=O)C32)cc(OC)c1OC (stereo not given)	MET
CCCCCCc1nc(Cc2cc(OC)c(OC)c(OC)c2)cc2c1[Si](C(C)C)(C(C)C)OC2	MET

Please tell me: is the compound COc1cc(NN2C(C(O)c3ccco3)C=CC3C(=O)N(C)C(=O)C32)cc(OC)c1OC (stereo not given) at or over -0.06 in terms of composite z-score?
MET

###

Give measured composite z-score for each item. Keep answers brief.
ASSAY_COMMENT: probe aLefty2 binding to arrayed compounds – biochemical, biotinylated probe, 635/667 nm fluorescence, primary screen (AID 1094);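 further: score merges spot fluorescence near 667 nm with spot signal-to-noise ratio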
PROTOCOL_CONDITIONS: small-molecule microarray, higher = more signal
Answers are plain numbers.

A selection of reference data follows.
COMPOUND	NUMERIC_VALUE
COc1cc(OC)c(C(O)C2C=CC3C(=O)N(Cc4ccccc4)C(=O)C3N2n2cnnc2)cc1Br (stereo not drawn)	0.0208
CCCC=C(CCC)[C@@H](NC(=O)c1cccs1)c1ccc(C(=O)OC)cc1	1.18
CS(=O)(=O)CCOC(=O)C1=CC(CCCO)=CC(c2ccc(CN3CCCC3)cc2)N(Cc2sc3ccccc3c2Cl)C=C1C(=O)OCCS(C)(=O)=O (stereo not drawn)	0.27

# per-item lookup of composite z-score; items listed below
1. [N-]=[N+]=Nc1ccccc1C[C@]1(C(=O)NCC(O)CO)COC(c2ccc(OCCCO)cc2)=N1 (stereo partly drawn)
2. CCCCN1CC=CC23O[C@@H]4/C=C\CCCOC(=O)C4[C@H]2C(=O)N(CCO)[C@@H]3C1=O (stereo partly drawn)
3. CCCCCN1CC=CC23O[C@@H]4/C=C\CCC(C)OC(=O)C4[C@H]2C(=O)N(C(CO)C(C)C)[C@@H]3C1=O (stereo partly drawn)
4. CCCC=C(CCC)[C@@H](NS(=O)(=O)CC12CCC(CC1=O)C2(C)C)c1ccc(C(=O)OC)cc1 (stereo partly drawn)
5. CC(C)C(CO)N1C(=O)[C@@H]2C3C(=O)OCCC/C=C\[C@H]3OC23C=CCN(c2ccc4ccccc4c2)C(=O)[C@@H]13 (stereo partly drawn)

[0.23, -0.212, -0.506, 0.0672, -0.0928]

###

ASSAY_COMMENT: compound effects on hepatocellular carcinoma cell viability – HepG2, calcein-AM fluorescence, 48 h, basal, profiling panel (AID 1164); further: test concentration not given here
PROTOCOL_CONDITIONS: higher = more signal
PROPERTY_MEASURED: z-score

Past entries and their recorded results:
COMPOUND	PROPERTY_MEASURED	RESULT
Oc1ccc2cc[n+](Cc3cc4c(cc3Br)OCO4)cc2c1	z-score	0.312
CCCC1(C(=O)OC)C=C2C(=C(C)C(=O)C2C)CN1 (stereo not given)	z-score	-0.806

I have 2 compounds here; please give me z-score for each one.
1. COc1cc(NN2C(C(O)c3ccc(N(C)C)cc3)C=CC3C(=O)N(c4ccccc4)C(=O)C32)cc(OC)c1OC (stereo not given)
2. CCCCC(CC)C(O)C1C=CC2C(=O)N(c3ccccc3)C(=O)C2N1Nc1ccccc1F (stereo not given)

0.181
-0.553

Check the records and state z-score for `C=C(COC)/C(=C/C[C@H](OC(=O)c1ccncc1)c1ccc(CO)o1)c1cnc2ccccc2c1`
-0.439

Data origin, for the record: PubChem BioAssay
